target: human 17βHSD type 1 (Homo sapiens); construct: made in house; expressing system suspended in buffer, not purified; test: Inhibition of recombinant 17βHSD type 1, tritium-labeled substrate conversion; type: biochemical; conditions: 1 μmol · l^−1 test substance; read-out: % of inhibition of human 17βHSD1
Outcome measure: inhibition at 1 µM (%)
Give bare numbers, in %.

Take a look at these entries with their results.
Query smiles	inhibition at 1 µM, %
C[C@]12CC[C@@H]3c4ccc(O)cc4CC[C@H]3[C@@H]1[C@H](CCc1ccc(Cl)cc1)CC2=O	97
C[C@]12CC[C@@H]3c4ccc(O)cc4CC[C@H]3[C@@H]1[C@H](CCc1ccccc1)CC2=O	83
Cc1ccc(CC[C@@H]2CC(=O)[C@@]3(C)CC[C@@H]4c5ccc(O)cc5CC[C@H]4[C@H]23)cc1	100
C[C@]12CC[C@@H]3c4ccc(O)cc4CC[C@H]3[C@@H]1[C@H](CCc1ccc(O)cc1)CC2=O	97
COc1ccc(CC[C@@H]2CC(=O)[C@@]3(C)CC[C@@H]4c5ccc(O)cc5CC[C@H]4[C@H]23)cc1	100

# per-item lookup of inhibition at 1 µM; items listed below
1. CCOc1ccc(CC[C@@H]2CC(=O)[C@@]3(C)CC[C@@H]4c5ccc(O)cc5CC[C@H]4[C@H]23)cc1
2. C[C@]12CC[C@@H]3c4ccc(O)cc4CC[C@H]3[C@@H]1[C@H](CCc1c(F)c(F)c(F)c(F)c1F)CC2=O
3. COc1ccc(CC[C@@H]2CC(=O)[C@@]3(C)CC[C@@H]4c5ccc(O)cc5CC[C@H]4[C@H]23)cc1OC
4. C[C@]12CC[C@@H]3c4ccc(O)cc4CC[C@H]3[C@@H]1[C@H](CCc1ccc(F)cc1)CC2=O
5. C[C@]12CC[C@@H]3c4ccc(O)cc4CC[C@H]3[C@@H]1[C@H](CCc1ccc(C(F)(F)F)cc1)CC2=O

A)
[88, 90, 67, 92, 91]

# per-item lookup of inhibition at 1 µM; items listed below
1. C=C[C@@H]1CC(=O)[C@@]2(C)CC[C@@H]3c4ccc(O)cc4CC[C@H]3[C@H]12
2. COc1cccc(CC[C@@H]2CC(=O)[C@@]3(C)CC[C@@H]4c5ccc(O)cc5CC[C@H]4[C@H]23)c1
3. COC(=O)c1ccc(CC[C@@H]2CC(=O)[C@@]3(C)CC[C@@H]4c5ccc(O)cc5CC[C@H]4[C@H]23)cc1
4. C[C@]12CC[C@@H]3c4ccc(O)cc4CC[C@H]3[C@@H]1[C@H](CCc1cc(F)c(F)c(F)c1)CC2=O

A)
95
87
99
95

# per-item lookup of inhibition at 1 µM; items listed below
1. CC(C)(C)Oc1ccc(CC[C@@H]2CC(=O)[C@@]3(C)CC[C@@H]4c5ccc(O)cc5CC[C@H]4[C@H]23)cc1
2. C[C@]12CC[C@@H]3c4ccc(O)cc4CC[C@H]3[C@@H]1[C@H](CCc1ccc3ccccc3c1)CC2=O

A)
80
92

* * *

Target: estrogen receptor α (ERα) (Homo sapiens)
Sequence (P03372 1-595): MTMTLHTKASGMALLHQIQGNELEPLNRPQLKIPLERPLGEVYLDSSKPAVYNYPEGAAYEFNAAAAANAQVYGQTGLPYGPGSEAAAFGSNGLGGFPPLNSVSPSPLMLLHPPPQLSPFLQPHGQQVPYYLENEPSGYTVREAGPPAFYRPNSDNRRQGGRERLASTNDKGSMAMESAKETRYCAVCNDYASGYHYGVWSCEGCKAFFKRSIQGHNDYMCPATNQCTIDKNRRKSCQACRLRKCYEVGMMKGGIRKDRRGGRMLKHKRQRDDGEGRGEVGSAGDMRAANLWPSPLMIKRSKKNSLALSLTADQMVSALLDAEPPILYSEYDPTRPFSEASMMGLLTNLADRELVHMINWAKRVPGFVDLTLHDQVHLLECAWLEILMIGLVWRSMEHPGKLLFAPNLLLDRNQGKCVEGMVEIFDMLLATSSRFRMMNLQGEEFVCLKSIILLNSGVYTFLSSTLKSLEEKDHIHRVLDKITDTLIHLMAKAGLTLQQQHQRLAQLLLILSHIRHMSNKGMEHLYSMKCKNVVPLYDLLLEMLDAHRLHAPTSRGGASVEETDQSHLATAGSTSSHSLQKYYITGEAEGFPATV
Assay: ERα luciferase reporter assay in U2OS cells
Conditions: antagonist mode, 1 nmol·l^−1 E2
Outcome measure: pIC50
Give bare numbers, as −log10 of the molar value.

Query smiles	System	Numeric result
COc1ccc(CC[C@@H]2CC(=O)[C@@]3(C)CC[C@@H]4c5ccc(O)cc5CC[C@H]4[C@H]23)cc1	estrogen receptor α (ERα) (Homo sapiens)	4.63

Proceeding to the next molecule to report its pIC50.
Q) With estrogen receptor α (ERα) (Homo sapiens) as the test system, provide measured pIC50 for this molecule: CCOc1ccc(CC[C@@H]2CC(=O)[C@@]3(C)CC[C@@H]4c5ccc(O)cc5CC[C@H]4[C@H]23)cc1
A) 4.54

* * *

Biological target: human 17βHSD type 1 (Homo sapiens, UniProt P14061)
Construct: expressing system suspended in buffer, not purified
Sequence (P14061 1-328): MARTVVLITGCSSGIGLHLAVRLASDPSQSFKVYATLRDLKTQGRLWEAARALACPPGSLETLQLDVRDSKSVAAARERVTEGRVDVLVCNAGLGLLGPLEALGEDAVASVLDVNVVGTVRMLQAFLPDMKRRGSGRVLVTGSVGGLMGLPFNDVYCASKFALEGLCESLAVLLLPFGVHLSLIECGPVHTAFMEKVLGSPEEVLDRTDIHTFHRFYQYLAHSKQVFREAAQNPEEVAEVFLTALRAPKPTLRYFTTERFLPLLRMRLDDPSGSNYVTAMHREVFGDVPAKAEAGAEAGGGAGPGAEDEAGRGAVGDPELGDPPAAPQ
Assay: Inhibition of recombinant 17βHSD type 1, tritium-labeled substrate conversion
Conditions: read-out: 17βHSD1 IC50
With a cut-off of 20 nM, any IC50 strictly below it is called YES; any IC50 meeting it or above is called NO.

Worked examples, 5 molecules total:
Molecule	Assigned label
C[C@]12CC[C@@H]3c4ccc(O)cc4CC[C@H]3[C@@H]1[C@H](CCc1ccc(Cl)cc1)CC2=O [Compound 6]	YES
C[C@]12CC[C@@H]3c4ccc(O)cc4CC[C@H]3[C@@H]1[C@H](CCc1cc(F)c(F)c(F)c1)CC2=O [Compound 16]	NO
COC(=O)c1ccc(CC[C@@H]2CC(=O)[C@@]3(C)CC[C@@H]4c5ccc(O)cc5CC[C@H]4[C@H]23)cc1 [Compound 7]	YES
C[C@]12CC[C@@H]3c4ccc(O)cc4CC[C@H]3[C@@H]1[C@H](CCc1ccc3ccccc3c1)CC2=O [Compound 8]	YES
COc1ccc(CC[C@@H]2CC(=O)[C@@]3(C)CC[C@@H]4c5ccc(O)cc5CC[C@H]4[C@H]23)cc1 [Compound 9]	YES

Q) # strict comparison: is reported IC50 < 20 nM? input = C=C[C@@H]1CC(=O)[C@@]2(C)CC[C@@H]3c4ccc(O)cc4CC[C@H]3[C@H]12 [Compound 2a]
A) YES

Q) # strict comparison: is reported IC50 < 20 nM? input = Cc1ccc(CC[C@@H]2CC(=O)[C@@]3(C)CC[C@@H]4c5ccc(O)cc5CC[C@H]4[C@H]23)cc1 [Compound 15]
A) YES

* * *

test system: MRCS; test: MTT cytotoxicity assay, MRC5 fibroblasts; format: cell-based; details: Homo sapiens, Fibroblast, non-tumor fibroblasts
Outcome measure: pIC50
Give bare numbers, as −log10 of the molar value.

Take a look at these entries with their results.
Query smiles	Numeric result
Cc1ccc(CC[C@@H]2CC(=O)[C@@]3(C)CC[C@@H]4c5ccc(O)cc5CC[C@H]4[C@H]23)cc1	4.71
C[C@]12CC[C@@H]3c4ccc(O)cc4CC[C@H]3[C@@H]1[C@H](CCc1ccc(O)cc1)CC2=O	4.30
C[C@]12CC[C@@H]3c4ccc(O)cc4CC[C@H]3[C@@H]1[C@H](CCc1ccc(Cl)cc1)CC2=O	4.68

Q) For C[C@]12CC[C@@H]3c4ccc(O)cc4CC[C@H]3[C@@H]1[C@H](CCc1ccc(F)cc1)CC2=O , write its pIC50.
A) 4.74

* * *

biological target: progesterone receptor (PR) (Homo sapiens); experiment: PR luciferase reporter assay in U2OS cells; settings: read-out: ANTAGONIST mode PR IC50
Sequence (P06401 whole entry): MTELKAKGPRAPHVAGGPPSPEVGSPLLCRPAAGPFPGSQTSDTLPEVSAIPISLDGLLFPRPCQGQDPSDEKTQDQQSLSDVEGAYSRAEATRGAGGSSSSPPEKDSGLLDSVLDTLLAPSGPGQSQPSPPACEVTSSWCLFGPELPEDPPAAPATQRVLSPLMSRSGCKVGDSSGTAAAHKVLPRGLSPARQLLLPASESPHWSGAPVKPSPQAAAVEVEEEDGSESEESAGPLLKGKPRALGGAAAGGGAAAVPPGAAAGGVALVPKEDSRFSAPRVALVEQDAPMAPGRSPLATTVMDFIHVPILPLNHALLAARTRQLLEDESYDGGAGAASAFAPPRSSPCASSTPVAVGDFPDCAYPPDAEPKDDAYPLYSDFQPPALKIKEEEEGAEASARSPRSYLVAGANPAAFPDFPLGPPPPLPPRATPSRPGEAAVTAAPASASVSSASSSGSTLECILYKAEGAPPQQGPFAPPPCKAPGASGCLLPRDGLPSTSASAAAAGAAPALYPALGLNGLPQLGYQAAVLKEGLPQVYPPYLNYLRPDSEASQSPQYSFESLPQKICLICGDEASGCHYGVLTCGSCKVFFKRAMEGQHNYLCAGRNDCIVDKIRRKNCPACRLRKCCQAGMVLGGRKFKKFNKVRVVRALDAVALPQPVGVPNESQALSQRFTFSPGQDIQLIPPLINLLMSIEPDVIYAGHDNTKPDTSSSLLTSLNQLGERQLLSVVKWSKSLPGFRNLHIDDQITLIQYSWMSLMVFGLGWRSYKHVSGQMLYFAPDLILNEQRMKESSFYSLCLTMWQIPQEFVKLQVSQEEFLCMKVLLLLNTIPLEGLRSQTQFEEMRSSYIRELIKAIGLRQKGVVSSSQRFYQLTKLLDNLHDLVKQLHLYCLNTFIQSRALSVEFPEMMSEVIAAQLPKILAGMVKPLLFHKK
Outcome measure: IC50 (µM)
One number for each entry, in µM.

Query smiles	IC50 (µM)
CCOc1ccc(CC[C@@H]2CC(=O)[C@@]3(C)CC[C@@H]4c5ccc(O)cc5CC[C@H]4[C@H]23)cc1	13.7

Proceeding to the next compound to report its IC50.
Q) For COc1ccc(CC[C@@H]2CC(=O)[C@@]3(C)CC[C@@H]4c5ccc(O)cc5CC[C@H]4[C@H]23)cc1 , write its IC50.
A) 13.6

FYI, the data here is from patent US10759826B2.
